Listing of recorded kd var/kd wt by entry.
Molecular target: T1, human TGFβ2 (human, UniProt P61812 303-414)
T1 construct: also called TGFβ2 homodimer
T1 sequence: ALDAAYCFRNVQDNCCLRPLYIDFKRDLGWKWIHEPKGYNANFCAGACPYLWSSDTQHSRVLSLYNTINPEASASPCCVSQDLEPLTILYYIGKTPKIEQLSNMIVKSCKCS
Assay: Biacore off-rate vs wt GC1008, 50 nM
Protocol: Plasmids encoding either the GC1008 heavy chain or light chain were used as a template in PCR-based mutagenesis reactions. […] Purified variant antibody samples were analyzed in duplicate on a Biacore® 3000 (GE Healthcare) at 50 nM concentrations, using the 100 RU level TGFβ1, 2, and 3 immobilized surfaces. […]

Prompt: Entry S30W (antibody, V domains shown, GC1008 IgG4 variant) VH: QVQLVQSGAEVKKPGSSVKVSCKASGYTFWSNVISWVRQAPGQGLEWMGGVIPIVDIANYAQRFKGRVTITADESTSTTYMELSSLRSEDTAVYYCASTLGLVLDAMDYWGQGTLVTVSS VL: ETVLTQSPGTLSLSPGERATLSCRASQSLGSSYLAWYQQKPGQAPRLLIYGASSRAPGIPDRFSGSGSGTDFTLTISRLEPEDFAVYYCQQYADSPITFGQGTRLEIK : reported kd var/kd wt = ?
Completion: 0.4

Prompt: Entry V55M (antibody, V domains shown, GC1008 IgG4 variant) VH: QVQLVQSGAEVKKPGSSVKVSCKASGYTFSSNVISWVRQAPGQGLEWMGGVIPIMDIANYAQRFKGRVTITADESTSTTYMELSSLRSEDTAVYYCASTLGLVLDAMDYWGQGTLVTVSS VL: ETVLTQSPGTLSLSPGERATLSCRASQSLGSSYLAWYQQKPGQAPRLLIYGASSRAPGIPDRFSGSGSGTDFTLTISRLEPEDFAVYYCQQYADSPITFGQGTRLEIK : reported kd var/kd wt = ?
Completion: 1.7

Prompt: Entry Y27E (antibody, V domains shown, GC1008 IgG4 variant) VH: QVQLVQSGAEVKKPGSSVKVSCKASGETFSSNVISWVRQAPGQGLEWMGGVIPIVDIANYAQRFKGRVTITADESTSTTYMELSSLRSEDTAVYYCASTLGLVLDAMDYWGQGTLVTVSS VL: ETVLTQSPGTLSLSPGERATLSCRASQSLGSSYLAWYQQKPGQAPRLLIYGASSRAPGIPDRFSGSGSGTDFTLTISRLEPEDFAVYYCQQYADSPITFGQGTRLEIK : reported kd var/kd wt = ?
Completion: 1.4
